Source of measurements: patent US20210388087A1

Listed below: pKd values for each entry.
# Study System: T1, Human CD3eg linker (human)
# T1 construct: Single chain: CD3 epsilon and gamma subunits joined by a 29-mer linker, Flag-tag at the C-terminus; also called recombinant human CD3
# T1 chain: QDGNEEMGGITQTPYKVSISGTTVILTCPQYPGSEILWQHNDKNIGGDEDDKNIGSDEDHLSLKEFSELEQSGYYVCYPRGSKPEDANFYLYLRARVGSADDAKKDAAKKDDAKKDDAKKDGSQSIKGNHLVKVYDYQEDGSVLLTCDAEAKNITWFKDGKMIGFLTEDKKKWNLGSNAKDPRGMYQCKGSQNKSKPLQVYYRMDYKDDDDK
# Assay Remarks: SPR Biacore T200, 25 C, Ab captured on anti-human Fc, antigen as analyte;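 further: Anti-Fc amine-coupled to a CM4 chip, recombinant human CD3 flowed over in 20 mM ACES buffer pH 7.4 with 150 mM NaCl and 0.05% Tween 20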
pKd: −log10 of the molar value.
Experimental Readout: pKd

# Binder, Value Reported
data = [
    ("H1649L0943 (antibody, V domains shown, Dual-Ig, IgG; also called dBBDu183H1649/dBBDu072L0943) VH: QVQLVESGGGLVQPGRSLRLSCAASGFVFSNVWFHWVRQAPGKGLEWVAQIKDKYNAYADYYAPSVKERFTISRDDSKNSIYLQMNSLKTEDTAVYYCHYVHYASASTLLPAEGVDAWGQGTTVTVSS VL: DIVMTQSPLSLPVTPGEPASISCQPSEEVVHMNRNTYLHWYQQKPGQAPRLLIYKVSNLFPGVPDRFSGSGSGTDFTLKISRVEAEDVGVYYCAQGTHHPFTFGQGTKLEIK", 6.10),
    ("H0868L0581 (antibody, V domains shown, Dual-Ig, IgG; also called H868L581; dBBDu183H0868/dBBDu072L0581) VH: QVQLVESGGGLVQPGRSLRLSCAASGFKFSNVWMHWVRQAPGKGLEWVAQIKDKYNAYAAYYAPSVKGRFTISRDDSKNSIYLQMNSLKTEDTAVYYCHYVHYASASTLLPAFGVDAWGQGTTVTVSS VL: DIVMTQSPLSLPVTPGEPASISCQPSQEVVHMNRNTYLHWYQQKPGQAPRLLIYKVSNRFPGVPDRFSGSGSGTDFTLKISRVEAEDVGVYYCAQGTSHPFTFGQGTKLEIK", 6.80),
    ("H1651L0581 (antibody, V domains shown, Dual-Ig, IgG; also called dBBDu183H1651/dBBDu072L0581) VH: QVQLVESGGGLVQPGRSLRLSCAASGFVFSNVWFHWVRQAPGKGLEWVAQIKDKYNAYADYYAPSVEGRFTISRDDSKNSIYLQMNSLKTEDTAVYYCHYVHYASASTLLPAEGVDAWGQGTTVTVSS VL: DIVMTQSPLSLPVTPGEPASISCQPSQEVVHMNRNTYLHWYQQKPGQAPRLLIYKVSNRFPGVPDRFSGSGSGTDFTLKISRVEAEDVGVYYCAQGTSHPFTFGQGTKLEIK", 6.29),
    ("H1571L0581 (antibody, V domains shown, Dual-Ig, IgG; also called dBBDu183H1571/dBBDu072L0581) VH: QVQLVESGGGLVQPGRSLRLSCAASGFKFSNVWFHWVRQAPGKGLEWVAQIKDKYNAYATYYAPSVKGRFTISRDDSKNSIYLQMNSLKTEDTAVYYCHYVHYASASTLLPAFGVDAWGQGTTVTVSS VL: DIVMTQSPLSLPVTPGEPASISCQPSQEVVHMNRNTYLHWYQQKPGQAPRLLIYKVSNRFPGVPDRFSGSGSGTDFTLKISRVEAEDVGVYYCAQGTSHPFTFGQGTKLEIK", 6.96),
    ("H1673L0581 (antibody, V domains shown, Dual-Ig, IgG; also called dBBDu183H1673/dBBDu072L0581) VH: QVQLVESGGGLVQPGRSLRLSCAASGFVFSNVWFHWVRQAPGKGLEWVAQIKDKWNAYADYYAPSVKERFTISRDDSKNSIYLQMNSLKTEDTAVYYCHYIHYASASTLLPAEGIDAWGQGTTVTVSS VL: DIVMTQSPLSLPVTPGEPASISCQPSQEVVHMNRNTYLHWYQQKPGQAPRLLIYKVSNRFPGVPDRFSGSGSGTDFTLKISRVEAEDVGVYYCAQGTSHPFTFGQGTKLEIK", 7.88),
]
